Reference source for all entries: PubChem BioAssay (NCI)

Tested on: DU-145 prostate
Assay: NCI-60 one-dose screen, 48 h
Conditions: 10 µM unless noted
Procedure: Cells are grown in 96 well plates and exposed to the test compound for 48 hours. Compounds are tested at a single concentration, which is 10^-5 M for most compounds. The reported endpoint is percent growth (GI% or GIPRCNT), where numbers from 0 - 100% represent growth inhibition, and numbers from -100% - 0 represent cell death. For example, a value of 40 represents 60% growth inhibition. A value of 0 means no net growth occurred over the course of the experiment. […]
This is part of a sample that, as a whole, favours compounds with a hit. Of some 83,000 tested, about 20% had one in any assay. Active and inactive are the calls of the source. The calls were made as follows: active = growth percent below 10; inactive = the rest.
Use one of these outcomes when replying: YES for active, NO for inactive

Test call for this molecule, please: `Clc1ccc(Nc2nnc(-c3ccc4c(c3)OCO4)o2)cc1`
NO

Test call for this molecule, please: COc1cc(C2C3=C(COC3=O)N(CCO)c3cc4c(cc32)OCCO4)cc(OC)c1O (centres undefined)
YES

Test call for this molecule, please: `C1CCN(c2nc(N3CCCCC3)nc(N3CCOCC3)n2)CC1`
NO

Test call for this molecule, please: `COC(=O)/C(CCC=C(C)C)=C1\[C@@H](OC(C)=O)C[C@@]2(C)[C@H]1CC(=O)[C@H]1[C@@]3(C)CC[C@H](NCc4ccccc4)[C@@H](C)[C@@H]3CC[C@@]12C`
NO

* * *

system: SK-MEL-28 melanoma; assay: NCI-60 one-dose screen, 48 h (100 = growth as untreated, 0 = no growth, -100 = all killed); details: 10 µM
The panel holds about 83,000 compounds, 20% with a hit somewhere; the sample as a whole holds those more often.
Kindly state growth for each of the entries shown.
One number for each entry, in %.

Consider the following illustrative entries.
| MOLECULE | MEASURED_ATTRIBUTE | UNITS_TEXT | REPORTED_RESULT |
| --- | --- | --- | --- |
| Cn1cc(-c2ccc3ncc(-c4ccc(CC(=O)Nc5cc(C(C)(C)C)no5)cc4)nc3c2)cn1 | growth | % | 53.2 |
| O=C(Nc1ncc(Cc2cccc(C(F)(F)F)c2)s1)C1COc2ccccc2O1 (stereo unspecified) | growth | % | 87.5 |
| O=C(NC(=S)Nc1cccc(NC(=S)NC(=O)c2ccccc2)c1)c1ccccc1 | growth | % | 55.3 |
| CCOC(=O)c1cnc2ccc(Cl)cc2c1NCCCN(C)C | growth | % | 50.1 |
| CCN1C(=O)N(c2ccccc2)C2Nn3c(s/c(=C4\C(=O)N(C(C)C)c5ccccc54)c3=O)=NC21 (stereo unspecified) | growth | % | 118 |

Proceeding to the next molecule to report its growth.
The measured growth that `NS(=O)(=O)c1ccc(CCN=C=S)cc1` showed for SK-MEL-28 melanoma is 55

* * *

system: SW-620 colon; assay: NCI-60 one-dose screen, 48 h (100 = growth as untreated, 0 = no growth, -100 = all killed); conditions: 10 µM unless noted
This is part of a sample that, as a whole, favours compounds with a hit. Of some 83,000 tested, about 20% had one in any assay. Calls of active or inactive are those of the source. Rule for the calls: active = growth percent below 10; inactive = the rest.
Kindly state growth for each of the entries shown.

Consider the following illustrative entries.
| COMPOUND | growth |
| --- | --- |
| CCOC(=O)c1cc2c(n1Cc1ccccc1OC)-c1oncc1CCC2 | 23.8% (inactive) |
| O=c1oc2ccc(Cl)cc2c(=O)n1-c1ccc(Cl)cc1F | 9.15% (active) |
| CC(C)CCNCC(O)Cn1c2ccccc2c2ccccc21 (stereo not given) | 12.5% (inactive) |
| CCN1C(=O)N(CC)C2C1NN=c1s/c(=C3\C(=O)N(CC(C)(C)C)c4ccccc43)c(=O)n12 (stereo not given) | 42.8% (inactive) |

Would you mind listing growth for each of the following compounds?
1. COc1ccc(C2C3=C(COC3=O)N(CCO)c3cc4c(cc32)OCCO4)cc1 (stereo not given)
2. Fc1ccc(Oc2ccc(Nc3ncnc4onc(-c5ccccc5)c34)cc2)cc1
3. O=c1oc2ccc(-c3ccc(F)cc3F)cc2c(=O)n1-c1cccc(C(F)(F)F)c1
4. COc1ccc(C2C3=C(COC3=O)N(CCO)c3cc4c(cc32)CCC4)cc1OC (stereo not given)
5. COc1ccc(-c2cn[nH]c2-c2cc(OC)c(OC)c(OC)c2)cc1OCc1ccccc1
6. O=C1/C(=C/c2cccc(O)c2)COc2ccc(O)cc21

["55.2% (inactive)", "95% (inactive)", "12.6% (inactive)", "14.7% (inactive)", "26.6% (inactive)", "9.65% (active)"]
